System: TSG-8 (MCAF) mRNA
Experiment: Northern blot analysis of TSG mRNA levels in FS-4 cells
Assay type: cell-based, human
Conditions: growth arrested FS-4 cells, 2 h; TNF 20 ng/ml, CHX 10 ug/ml, IFN-β 500 U/ml, IFN-γ 100 U/ml, IL-1-α 1 ng/ml, EGF 25 ng/ml, TGF-β 2 ng/ml, poly(I).poly(C) 50 ug/ml, TPA 100 ng/ml, A23187 1 uM, forskolin 10 uM, dBcAMP 100 uM, IBMX 100 uM
property_measured: Relative Increase in mRNA Level TSG-8 (MCAF)

Answered cases to consult:
compound	tested_on	obs_value
C[C@@H]1C[C@@H]([C@H](O)CC2CC(=O)NC(=O)C2)C(=O)[C@@H](C)C1 [CHX, cycloheximide]	TSG-8 (MCAF) mRNA	+
CCCCCCCCCCCCCC(=O)O[C@@H]1[C@@H](C)[C@@]2(O)[C@@H](C=C(CO)C[C@]3(O)C(=O)C(C)=C[C@@H]23)[C@@H]2C(C)(C)[C@]12OC(C)=O [TPA, 12-O-tetradecanoylphorbol 13-acetate]	TSG-8 (MCAF) mRNA	++
CNc1ccc2oc(C[C@H]3O[C@@]4(CC[C@H]3C)O[C@H]([C@H](C)C(=O)c3ccc[nH]3)[C@H](C)C[C@H]4C)nc2c1C(=O)O [A23187]	TSG-8 (MCAF) mRNA	++
C=C[C@@]1(C)CC(=O)[C@]2(O)[C@@]3(C)[C@@H](O)CCC(C)(C)[C@@H]3[C@H](O)[C@H](OC(C)=O)[C@@]2(C)O1 [Forskolin, forskolin]	TSG-8 (MCAF) mRNA	0

Here's the next entry for you.
Name the reported Relative Increase in mRNA Level TSG-8 (MCAF) value associated with the compound CCCC(=O)Nc1ncnc2c1ncn2[C@@H]1O[C@@H]2COP(=O)(O)O[C@H]2[C@H]1OC(=O)CCC [dBcAMP] +

* * *

Hi there, I'd appreciate the recorded Relative Increase in mRNA Level TSG-37 (MT-II) for every entry that follows.
System: TSG-37 (MT-II) mRNA
Test: Northern blot analysis of TSG mRNA levels in FS-4 cells
Format: cell-based, human
Settings: growth arrested FS-4 cells, 2 h; TNF 20 ng/ml, CHX 10 ug/ml, IFN-β 500 U/ml, IFN-γ 100 U/ml, IL-1-α 1 ng/ml, EGF 25 ng/ml, TGF-β 2 ng/ml, poly(I).poly(C) 50 ug/ml, TPA 100 ng/ml, A23187 1 uM, forskolin 10 uM, dBcAMP 100 uM, IBMX 100 uM
API note: the answer field is a bare number with no unit suffix.

Entry C=C[C@@]1(C)CC(=O)[C@]2(O)[C@@]3(C)[C@@H](O)CCC(C)(C)[C@@H]3[C@H](O)[C@H](OC(C)=O)[C@@]2(C)O1 : reported Relative Increase in mRNA Level TSG-37 (MT-II) = ? 0

Next compound: CNc1ccc2oc(C[C@H]3O[C@@]4(CC[C@H]3C)O[C@H]([C@H](C)C(=O)c3ccc[nH]3)[C@H](C)C[C@H]4C)nc2c1C(=O)O 0

Another: C[C@@H]1C[C@@H]([C@H](O)CC2CC(=O)NC(=O)C2)C(=O)[C@@H](C)C1 [CHX, cycloheximide] 0
